This collection of values is drawn from the RNAGym collection of RNA variant scans (doi:10.1093/nar/gkz1192).

B1: CPEB3 Ribozyme (parent)
chain: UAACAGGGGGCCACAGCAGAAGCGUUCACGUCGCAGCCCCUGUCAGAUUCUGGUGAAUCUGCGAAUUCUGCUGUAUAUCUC

Variants of: B1
ASSAY PROCEDURE: self-cleavage, relative activity (ratio to wild type); higher = more cleavage; in vitro, sequencing
METRIC NAME: self-cleavage

Give self-cleavage for each of the items listed below.
1. A20G U31A
2. A13U C68A

Result:
1: 0.37; 2: 0.54
